The reported measurements were obtained from patent US7329737.

# system: T1, hK1 (human tissue kallikrein 1), recombinant (human, UniProt P06870 25-262)
# T1 construct: Expressed in P. pastoris from KLK1 cDNA and purified; enzymatically active; also called KLK1; Recombinant (Pichia) Kallikrein
# assay info: SPR
Label T when kon is strictly below 300000 M⁻¹ s⁻¹; otherwise label F.

>>> assigned_class("M0114-G06 (Fab, V domains shown) VH: EVQLLESGGGLVQPGGSLRLSCAASGFTFSYYEMEWVRQAPGKGLEWVSSIRPSGGRTVYADSVKGRFTISRDNSKNTLYLQMNSLRAEDTAVYYCAKGRSNYYGSGSYSPKYFQHWGQGTLVTVSS VL: DIQMTQSPSSLSASVGDRVTITCRASQGISSWLAWYQQRPERAPKSLIYAASSLERGVPSRFRGSGSGTDFTLTISSLQPEDFGTYYCQQYHNFPLTFGGGTRVEINR")
"T"
>>> assigned_class("M0099-E11 (Fab, V domains shown) VH: EVQLLESGGGLVQPGGSLRLSCAASGFTFSHYTMVWVRQAPGKGLEWVSSIYSSGGRTNYADSVKGRFTISRDNSKNTLYLQMNSLRAEDTAVYYCARIVVVPSAQFYFYYGMDVWGQGTTVTVSS VL: DIQMTQSPSTLSASVGDRVTITCRASQSISNWLAWYQQKPGRAPKLLIYKASTLESGVPSRFSGSGSGTEFTLTISSLQPDDFATYYCQHYNSYSLFGQGTKLEIKR")
"F"
>>> assigned_class("M0111-C10 (Fab, V domains shown) VH: EVQLLESGGGLVQPGGSLRLSCAASGFTFSRYVMSWVRQAPGKGLEWVSSIRSSGGRTMYADSVKGRFTISRDNSKNTLYLQMNSLRAEDTAVYYCARVGVWYGMDVWGQGTTVTVSS VL: DIQMTQSPSSLSASVGDRVTITCRASQSISSYLNWYQQKPEKAPQLLIFAASSLQSGVPSRFSGSGSGTDFTLTISSLQPEDFATYYCQQSYNAPWTFGQGTKVEIRR")
"F"
>>> assigned_class("M0097-G01 (Fab, V domains shown) VH: EVQLLESGGGLVQPGGSLRLSCAASGFTFSPYYMQWVRQAPGKGLEWVSGISSSGGSTQYADSVKGRFTISRDNSKNTLYLQMNSLRAEDTAVYYCARSQRRTYYPNFGDAFDIWGQGTMVTVSS VL: DIQMTQSPSSLSASVGDRVTITCRASQGIGNYLVWYQHKPGNVPRVLIYAASTLQSGVPSRFRGSGSGTDFTLTISGLQPEDVATYYCQKYDGAPFTFGPGTKVDLKR")
"T"

Confirm or reject: kon of M0127-H05 (Fab, V domains shown) VH: EVQLLESGGGLVQPGGSLRLSCAASGFTFSHYLMGWVRQAPGKGLEWVSSIWPSGGHTSYADSVKGRFTISRDNSKNTLYLQMNSLRAEDTAVYYCARHYGMDVWGQGTTVTVSS VL: DIQMTQSPSSLSASVGDRVTITCRASQSISSYLNWYQQKPGKVPKLLIYAASSLQSGVPSRFSGSGSGTDFTLTISSLQPDDFATYYCQQTFSTWTFGQGTKVEIRR lies strictly below 300000 M⁻¹ s⁻¹ T
